Target: Cdk4/Cyclin D (Homo sapiens, UniProt P11802)
Sequence (P11802 whole entry, species assumed): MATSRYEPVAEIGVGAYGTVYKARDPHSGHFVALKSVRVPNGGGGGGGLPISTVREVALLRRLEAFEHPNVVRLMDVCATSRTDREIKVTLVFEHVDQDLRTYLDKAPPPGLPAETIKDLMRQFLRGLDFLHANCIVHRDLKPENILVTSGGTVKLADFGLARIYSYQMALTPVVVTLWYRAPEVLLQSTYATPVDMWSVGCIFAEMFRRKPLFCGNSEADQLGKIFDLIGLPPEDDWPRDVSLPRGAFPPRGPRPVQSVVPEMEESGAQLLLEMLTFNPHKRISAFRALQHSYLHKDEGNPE
Sequence (P24385 whole entry partner, species assumed): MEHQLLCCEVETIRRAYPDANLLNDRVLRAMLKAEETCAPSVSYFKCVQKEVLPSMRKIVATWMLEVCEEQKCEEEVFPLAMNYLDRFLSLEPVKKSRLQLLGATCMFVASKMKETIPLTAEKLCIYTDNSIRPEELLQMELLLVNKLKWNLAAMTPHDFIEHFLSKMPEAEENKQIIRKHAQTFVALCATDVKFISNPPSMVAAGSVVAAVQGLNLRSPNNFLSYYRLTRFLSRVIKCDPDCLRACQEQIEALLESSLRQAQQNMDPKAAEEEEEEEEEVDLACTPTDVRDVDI
Assay: Assay for Inhibition of Cdk4/Cyclin D
Details: 25 μM ATP, retinoblastoma protein substrate, 25° C., 15 minutes
Procedure: The assays were carried out as described below. Assay for Inhibition of Cdk4/Cyclin D The Cdk4 enzyme assay for IC50 determination and kinetic evaluation is performed as follows. 96-well filter plates (Millipore MADVN6550) are used. […] The wells are then washed five times with 0.2 mL 10% TCA, and ^32P incorporation is determined with a beta plate counter (Wallac Inc., Gaithersburg, Md.).
Structures can show the parent of a compound that is named as a salt.

{"columns": ["compound", "result.comparator", "IC50 / nM"],
 "data": [
  ["Cc1c(Br)c(=O)n(C2CCCC2)c2nc(Nc3ccccn3)ncc12", ">", 5000],
  ["CCOCc1cc2cnc(Nc3ccc(N4CCCCC4)cn3)nc2n(C2CCCC2)c1=O", "=", 545],
  ["CC(=O)c1c(C)c2cnc(Nc3ccccn3)nc2n(C2CCCC2)c1=O", "=", 440],
  ["CCOCCc1cc2cnc(Nc3ccc(N4CCNCC4)cn3)nc2n(C2CCCC2)c1=O", "=", 124],
  ["CC(=O)c1c(C)c2cnc(Nc3ccc(N4CCC(O)CC4)cn3)nc2n(C2CCCC2)c1=O", "=", 19],
  ["Nc1cccc(Nc2ncc3cc(Br)c(=O)n(C4CCCC4)c3n2)n1", "=", 430],
  ["Cc1c(Br)c(=O)n(C2CCCC2)c2nc(Nc3ccc(N4CC(C)NC(C)C4)cn3)ncc12 (stereo not drawn)", "=", 63],
  ["Cc1cc2cnc(Nc3ccc(N4CCNCC4)cn3)nc2n(C2CCCC2)c1=O [Example 20, hydrochloride]", "=", 27],
  ["O=c1ccc2cnc(Nc3ccc(N4CCNCC4)cn3)nc2n1C1CCCCC1", "=", 13]
]}

----------
biological target: Cdk4/Cyclin D (Homo sapiens, UniProt P11802); experiment: Assay for Inhibition of Cdk4/Cyclin D; conditions: 25 μM ATP, retinoblastoma protein substrate, 25° C., 15 minutes
pIC50: −log10 of the molar value. Where a name gives a salt, the structure may show the parent alone.
As shown below, each of these molecules has a reported pIC50 value.

{"columns": ["molecule", "assay.target", "result.comparator", "pIC50"],
 "data": [
  ["O=c1c(CO)cc2cnc(Nc3ccc(N4CCNCC4)cn3)nc2n1C1CCCC1 [Example 29, hydrochloride]", "Cdk4/Cyclin D (Homo sapiens, UniProt P11802)", "=", 7.89],
  ["CC(C)COc1cc2cnc(Nc3ccc(N4CCNCC4)cn3)nc2n(C2CCCC2)c1=O [Example 22, hydrochloride]", "Cdk4/Cyclin D (Homo sapiens, UniProt P11802)", "=", 5.77],
  ["Cc1c(Br)c(=O)n(C2CCCC2)c2nc(Nc3ccc(N4CCC(O)CC4)cn3)ncc12 [Example 75]", "Cdk4/Cyclin D (Homo sapiens, UniProt P11802)", "=", 7.13],
  ["CC(=O)c1c(C)c2cnc(Nc3ccc(N4CCNC(C)(C)C4)cn3)nc2n(C2CCCC2)c1=O [Example 90]", "Cdk4/Cyclin D (Homo sapiens, UniProt P11802)", "=", 7.68],
  ["O=c1c(Br)cc2cnc(Nc3ccccn3)nc2n1C1CCCCC1 [Example 13]", "Cdk4/Cyclin D (Homo sapiens, UniProt P11802)", "<", 5.30],
  ["Nc1cc2cnc(Nc3ccc(N4CCNCC4)cn3)nc2n(C2CCCC2)c1=O [Example 11, hydrochloride]", "Cdk4/Cyclin D (Homo sapiens, UniProt P11802)", "=", 7.92],
  ["CCOCc1cc2cnc(Nc3ccc(N4CCOCC4)cn3)nc2n(C2CCCC2)c1=O [Example 125]", "Cdk4/Cyclin D (Homo sapiens, UniProt P11802)", "=", 7.74],
  ["CCOC(=O)c1cc2cnc(Nc3ccc(N4CCNCC4)cn3)nc2n(C2CCCC2)c1=O [Example 7, hydrochloride]", "Cdk4/Cyclin D (Homo sapiens, UniProt P11802)", "=", 6.23]
]}

----------
target: Cdk4/Cyclin D (Homo sapiens, UniProt P11802); test: Assay for Inhibition of Cdk4/Cyclin D; details: 25 μM ATP, retinoblastoma protein substrate, 25° C., 15 minutes
Counter-ions that a name gives are not always drawn.

{"columns": ["compound", "assay.target", "quantity.unit", "result.comparator", "IC50"],
 "data": [
  ["O=c1ccc2cnc(Nc3ccc(N4CCNCC4)cn3)nc2n1C1CCCC1", "Cdk4/Cyclin D (Homo sapiens, UniProt P11802)", "µM", "=", 0.015],
  ["CCc1cc2cnc(Nc3ccc(N4CCNCC4)cn3)nc2n(C2CCCC2)c1=O [Example 5, hydrochloride]", "Cdk4/Cyclin D (Homo sapiens, UniProt P11802)", "µM", "=", 0.019],
  ["CC(=O)c1c(C)c2cnc(Nc3ccc(N4CC(C)OC(C)C4)cn3)nc2n(C2CCCC2)c1=O (stereo not shown)", "Cdk4/Cyclin D (Homo sapiens, UniProt P11802)", "µM", "=", 0.03],
  ["Cc1c(Br)c(=O)n(C2CCCC2)c2nc(Nc3ccc(N4CCNCC4)cn3)ncc12", "Cdk4/Cyclin D (Homo sapiens, UniProt P11802)", "µM", "=", 0.16],
  ["CC(=O)c1c(C)c2cnc(Nc3ccc(N4CCOCC4)cn3)nc2n(C2CCCC2)c1=O", "Cdk4/Cyclin D (Homo sapiens, UniProt P11802)", "µM", "=", 0.004],
  ["CC(C)n1c(=O)ccc2cnc(Nc3ccc(N4CCNCC4)cn3)nc21", "Cdk4/Cyclin D (Homo sapiens, UniProt P11802)", "µM", ">", 5],
  ["O=c1c(Br)cc2cnc(Nc3ccc(N4CCNCC4)cn3)nc2n1C1CCCC1 [Example 3, hydrochloride]", "Cdk4/Cyclin D (Homo sapiens, UniProt P11802)", "µM", "=", 0.016],
  ["Cc1c(I)c(=O)n(C2CCCC2)c2nc(Nc3ccc(N4CCNCC4)cn3)ncc12", "Cdk4/Cyclin D (Homo sapiens, UniProt P11802)", "µM", "=", 0.145],
  ["COCCOCc1cc2cnc(Nc3ccc(N4CCNCC4)cn3)nc2n(C2CCCC2)c1=O", "Cdk4/Cyclin D (Homo sapiens, UniProt P11802)", "µM", "=", 0.031],
  ["CCc1cc2cnc(Nc3ccc(N4CCC(O)CC4)cn3)nc2n(C2CCCC2)c1=O", "Cdk4/Cyclin D (Homo sapiens, UniProt P11802)", "µM", "=", 0.135],
  ["CN1CCC[C@H]1c1ccc(Nc2ncc3cc(Br)c(=O)n(C4CCCC4)c3n2)nc1 [Example 12, hydrochloride]", "Cdk4/Cyclin D (Homo sapiens, UniProt P11802)", "µM", "=", 0.175],
  ["COCCN(CCOC)c1ccc(Nc2ncc3c(C)c(C(C)=O)c(=O)n(C4CCCC4)c3n2)nc1", "Cdk4/Cyclin D (Homo sapiens, UniProt P11802)", "µM", "=", 0.024],
  ["COCCN(CCOC)c1ccc(Nc2ncc3c(C)c(Br)c(=O)n(C4CCCC4)c3n2)nc1", "Cdk4/Cyclin D (Homo sapiens, UniProt P11802)", "µM", "=", 1.1],
  ["Cc1c(Br)c(=O)n(C2CCCC2)c2nc(Nc3ccc(N4CCN(C)CC4)cn3)ncc12", "Cdk4/Cyclin D (Homo sapiens, UniProt P11802)", "µM", "=", 0.135],
  ["O=c1c(Cc2ccccc2)cc2cnc(Nc3ccc(N4CCNCC4)cn3)nc2n1C1CCCC1 [Example 24, hydrochloride]", "Cdk4/Cyclin D (Homo sapiens, UniProt P11802)", "µM", "=", 0.005],
  ["CC(=O)c1c(C)c2cnc(Nc3ccc(N4CCN(C)CC4)cn3)nc2n(C2CCCC2)c1=O", "Cdk4/Cyclin D (Homo sapiens, UniProt P11802)", "µM", "=", 0.005]
]}

These data points were gathered from patent USRE47739E1.
